B1: library; numbered along this chain (parent)
chain: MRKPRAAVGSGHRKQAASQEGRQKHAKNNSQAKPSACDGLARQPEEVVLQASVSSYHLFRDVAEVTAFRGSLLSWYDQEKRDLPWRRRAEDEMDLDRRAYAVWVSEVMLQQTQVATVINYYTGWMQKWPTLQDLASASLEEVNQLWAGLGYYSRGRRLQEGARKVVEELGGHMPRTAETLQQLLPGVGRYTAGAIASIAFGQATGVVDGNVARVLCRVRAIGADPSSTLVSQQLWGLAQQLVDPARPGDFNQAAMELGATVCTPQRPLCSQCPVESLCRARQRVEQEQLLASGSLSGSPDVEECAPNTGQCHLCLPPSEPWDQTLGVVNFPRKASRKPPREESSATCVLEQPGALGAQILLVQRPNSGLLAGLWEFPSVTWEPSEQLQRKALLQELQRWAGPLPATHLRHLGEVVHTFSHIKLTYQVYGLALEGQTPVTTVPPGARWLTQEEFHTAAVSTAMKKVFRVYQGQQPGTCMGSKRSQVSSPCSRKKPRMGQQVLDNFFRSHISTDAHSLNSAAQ

variants of: B1; test: 8OG:A repair function score (normalized; synonymous = 0, nonsense = -1) (normalized log-likelihood score); higher = more repair activity (WT-like); details: with 8OG:A DNA repair reporter (GFP) in HEK-293 MUTYH KO cells;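 note: cells sorted at 72 h after reporter transfection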
8OG:A repair function score of -0.03 or higher: Y. Under -0.03: N.

API: above_or_equal(metric=8OG:A repair function score, cutoff=-0.03) for item `L361C`
N

Follow-up entry: `L370M`
N

Follow-up entry: `S55K`
Y

Follow-up entry: `K337C`
N

Follow-up entry: `F200D`
N

Follow-up entry: `R482A`
Y

Follow-up entry: `Q132C`
N

Follow-up entry: `L134F`
N

Follow-up entry: `S136Y`
Y

Follow-up entry: `L295S`
Y

Follow-up entry: `Q472F`
Y

Follow-up entry: `F418H`
N

Follow-up entry: `S318Q`
Y

Follow-up entry: `Y428N`
N

Follow-up entry: `D91A`
Y

Follow-up entry: `S298R`
N

Follow-up entry: `V206E`
N

Follow-up entry: `Q498D`
Y

Follow-up entry: `N517L`
Y

Follow-up entry: `G309N`
N

Follow-up entry: `V327Q`
N

Follow-up entry: `F200L`
N
